Test system: Wolbachia pipientis
Experiment: Anti-Wolbachia Cell-Based Screen
Format: functional
Parameters: scale not given: in the data most compounds retested in dose-response had high values
Settings: 5 µM
The whole screen tested about 48,000 compounds, of which about 13,000 (27%) showed an effect of 50% or more. This is one part of the list.
Endpoint: Percent Effect (%)
One number for each entry, in %.

• Cc1nc(CN2CCC3(CCN(Cc4cnn(C)c4)CC3)C2=O)cs1.O=C(O)C(F)(F)F.O=C(O)C(F)(F)F = 102.9
• Cc1cc(C(=O)N2CCC(c3nccn3Cc3ccncc3)CC2)no1 = -16.29
• Cc1nc(CN2CCC3(CCCN(Cc4cnn(C)c4)C3)C2=O)cs1.O=C(O)C(F)(F)F.O=C(O)C(F)(F)F (centres undefined) = 12.7

Now for a further compound.
Exam item: Bench note: what Percent Effect did Cc1nc(CN2CCC3(CCN(Cc4nccn4C)CC3)C2=O)cs1.O=C(O)C(F)(F)F.O=C(O)C(F)(F)F show?
Marked response: 106
